# Read-out: Thrombomodulin, THBD (gene 7056)
# test description: BSK_CASM3C_Thrombomodulin: BioMAP Diversity Plus: CASM3C Assay for Thrombomodulin Biomarker Activity (AID 2283051);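 also: thrombomodulin protein level measured by ELISA 24 h after dosing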
# condition parameters: primary human coronary artery smooth muscle cells; actives raise or lower the signal
Calls of active or inactive are those of the source. The calls were made as follows: active = hit-call score of the fitted dose curve at least 0.9, where 1 is the maximum; inactive = score below 0.9.
Outcomes: 1 for active, -1 for inactive

> print(dat)
                                    compound  assigned.label
 1        O=C(OCCCCCCOC(=O)c1ccccc1)c1ccccc1               1
 2  CN1C(=O)N(c2ccccc2Br)Cc2cnc(Nc3ccc4c(c3)OCC(CO)O4)nc21 (stereo not given)              -1
 3            Clc1cc(Cl)c2c(c1)N=C1CCCCCN1C2              -1
 4  COc1ccc2cc(S(=O)(=O)N[C@H](CC(=O)N[C@H](Cc3ccc(CN4[C@H](C)CCC[C@@H]4C)cc3)C(=O)N(C)C(C)C)c3ccc4c(c3)OCO4)ccc2c1               1
 5                          c1ccc2n[nH]nc2c1              -1
 6  C[C@]12CC[C@@H]3c4ccc(O)cc4CC[C@H]3[C@@H]1CCC2=O              -1
 7             O=C(O)c1ccccc1C(=O)OCc1ccccc1              -1
 8           O=C1O[C@H]([C@@H](O)CO)C(O)=C1O              -1
 9                          O=c1ccc2ccccc2o1              -1
10  Cc1cc(F)ccc1-c1cc(N2CC[C@@H](O)[C@H]2CO)ncc1N(C)C(=O)C(C)(C)c1cc(C(F)(F)F)cc(C(F)(F)F)c1              -1

---

# target: Heat shock factor protein 1 (Homo sapiens) (UniProt Q00613)
# Sequence (Q00613 whole entry, looked up): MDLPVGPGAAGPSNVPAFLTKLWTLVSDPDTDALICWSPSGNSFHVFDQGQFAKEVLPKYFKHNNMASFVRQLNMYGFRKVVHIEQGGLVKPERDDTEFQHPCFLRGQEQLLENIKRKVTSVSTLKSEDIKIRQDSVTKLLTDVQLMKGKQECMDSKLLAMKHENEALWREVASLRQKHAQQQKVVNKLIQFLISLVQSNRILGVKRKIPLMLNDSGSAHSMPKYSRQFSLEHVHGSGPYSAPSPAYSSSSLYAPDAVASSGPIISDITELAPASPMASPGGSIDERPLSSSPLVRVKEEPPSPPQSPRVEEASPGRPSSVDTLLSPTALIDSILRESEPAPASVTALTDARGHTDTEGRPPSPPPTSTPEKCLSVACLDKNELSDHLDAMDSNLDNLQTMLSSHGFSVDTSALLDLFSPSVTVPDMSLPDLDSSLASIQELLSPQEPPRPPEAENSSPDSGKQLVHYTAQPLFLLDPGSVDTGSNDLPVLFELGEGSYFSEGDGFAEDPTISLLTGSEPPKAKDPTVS
# test description: ATG_HSE_CIS: Attagene CIS-FACTORIAL HepG2 Assay for human Heat Shock Transcription Factor 1 (HSE) (AID 2282953)
# condition parameters: HepG2 HSE cis-reporter, Attagene RNA transcription; actives raise or lower the signal
Active and inactive are the calls of the source. Rule for the calls: active = hit-call score of the fitted dose curve at least 0.9, where 1 is the maximum; inactive = score below 0.9.
Outcomes: active, inactive

> print(dat)
                                   compound  assigned.label
1  COc1ccc2cc(S(=O)(=O)N[C@H](CC(=O)N[C@H](Cc3ccc(CN4[C@H](C)CCC[C@@H]4C)cc3)C(=O)N(C)C(C)C)c3ccc4c(c3)OCO4)ccc2c1        inactive
2  C[C@]12CC[C@@H]3c4ccc(O)cc4CC[C@H]3[C@@H]1CC[C@H]2O        inactive
3                             CCCCCCCCCCCCO        inactive
4  Cc1cc(F)ccc1-c1cc(N2CC[C@@H](O)[C@H]2CO)ncc1N(C)C(=O)C(C)(C)c1cc(C(F)(F)F)cc(C(F)(F)F)c1        inactive
5           O=C1O[C@H]([C@@H](O)CO)C(O)=C1O        inactive
6      O=c1c(-c2ccc(O)cc2)coc2cc(O)cc(O)c12        inactive
7  OC12N=C(c3ccccc3)SC1Cc1cc(Cl)ccc12 (centres undefined)        inactive
8  CN(C[C@@H](CC[N+]12CCC(C3CCCCC3)(CC1)CC2)c1ccc(Cl)c(Cl)c1)C(=O)c1cc(C(F)(F)F)cc(C(F)(F)F)c1        inactive
9  CN(C)c1ccc(C(=C2C=CC(=[N+](C)C)C=C2)c2ccc(N(C)C)cc2)cc1          active
